assay: Antiproliferative activity against human H441 cells after 72 hrs by MTT assay; type: functional, cell-based; details: NCI-H441, 72 h
assay_metric: pIC50
For clarity, pIC50 is expressed as the negative log10 of concentration in mol/L.

Which pIC50 is reported for this compound? CN(C)/[N+]([O-])=N/Oc1cc(O/N=[N+](\[O-])N2CCCC2CO)c([N+](=O)[O-])cc1[N+](=O)[O-] (centres undefined)
5.68

Which pIC50 is reported for this compound? CCOC(=O)N1CCN(/[N+]([O-])=N/Oc2cc(O/N=[N+](\[O-])N(C)C)c([N+](=O)[O-])cc2[N+](=O)[O-])CC1
5.30

Which pIC50 is reported for this compound? CNc1ccc(C(=O)Oc2cc(O/N=[N+](\[O-])N(C)C)c([N+](=O)[O-])cc2[N+](=O)[O-])cc1
5.31

Which pIC50 is reported for this compound? CCOC(=O)N1CCN(/[N+]([O-])=N/Oc2cc(O/N=[N+](\[O-])N3CCN(C(=O)N(CC)CC)CC3)c([N+](=O)[O-])cc2[N+](=O)[O-])CC1
5.77

###

This listing pairs molecules with measured IC50.
test system: U-937; test: Antiproliferative activity against human U937 cells after 72 hrs by MTT assay; format: functional, cell-based; settings: U-937, 72 h
Record the value in nM, omitting the unit from your answer.

Completed entries (count: 3):
# molecule, test_result
measured = [
    ("CCOC(=O)N1CCN(/[N+]([O-])=N/Oc2cc(O/N=[N+](\\[O-])N(C)C)c([N+](=O)[O-])cc2[N+](=O)[O-])CC1", 1300),
    ("CCOC(=O)N1CCN(/[N+]([O-])=N/Oc2cc(O/N=[N+](\\[O-])N3CCN(C(=O)N(CC)CC)CC3)c([N+](=O)[O-])cc2[N+](=O)[O-])CC1", 900),
    ("CNc1ccc(C(=O)Oc2cc(O/N=[N+](\\[O-])N(C)C)c([N+](=O)[O-])cc2[N+](=O)[O-])cc1", 2700),
]

Turning now to a further molecule:
Which IC50 is reported for this molecule? CN(C)/[N+]([O-])=N/Oc1cc(O/N=[N+](\[O-])N2CCCC2CO)c([N+](=O)[O-])cc1[N+](=O)[O-] (centres undefined)
800

###

This listing pairs compounds with measured IC50.
system: A549; assay: Antiproliferative activity against human A549 cells after 72 hrs by MTT assay; assay type: functional, cell-based; conditions: A549, 72 h
Record the value in µM, omitting the unit from your answer.

# compound, IC50 / µM
rows = [
    ("CN(C)/[N+]([O-])=N/Oc1cc(O/N=[N+](\\[O-])N2CCCC2CO)c([N+](=O)[O-])cc1[N+](=O)[O-] (centres undefined)", 5.1),
    ("CCOC(=O)N1CCN(/[N+]([O-])=N/Oc2cc(O/N=[N+](\\[O-])N3CCN(C(=O)N(CC)CC)CC3)c([N+](=O)[O-])cc2[N+](=O)[O-])CC1", 3.9),
]

Which IC50 is reported for this compound? CCOC(=O)N1CCN(/[N+]([O-])=N/Oc2cc(O/N=[N+](\[O-])N(C)C)c([N+](=O)[O-])cc2[N+](=O)[O-])CC1
9.1
